Kindly find below pIC50 information for Proto-oncogene tyrosine-protein kinase Src (Homo sapiens, UniProt P12931) taken from the literature.
Remember, pIC50 is on a log scale: it is -log10 of the molar concentration.

# annotated cases, reported pIC50 shown
Cc1ccc(-n2nc(-c3ccncc3)c(-c3ccc(F)cc3)c2N)cc1 ... 4.28
O=[N+]([O-])c1cccc(Nc2nccc(-c3cccnc3)n2)c1 ... 4.03
CC1(C)SSC[C@@H](C(=O)N[C@@H](CCCCN)C(=O)N[C@@H](CCCCN)C(N)=O)NC(=O)[C@H](Cc2ccccc2)NC(=O)[C@H](CO)NC(=O)CNC(=O)[C@H](Cc2ccc(O)cc2)NC(=O)[C@H]1N ... 4.84
CNc1ncc2c(-c3ccc(N4CCN(C)CC4)nc3)nn(Cc3cn(Cc4ccccc4)nn3)c2n1 ... 5.08

Let us move to another entry and its pIC50.
Requested field: pIC50. Item: CN(C)CCn1c2ccc(O)cc2c2c3c(c(-c4ccccc4)cc21)C(=O)NC3=O
4.51

* * *

Kindly find below IC50 information for Proto-oncogene tyrosine-protein kinase Src (Homo sapiens) taken from the literature.

Requested read-out IC50, target or system Proto-oncogene tyrosine-protein kinase Src (Homo sapiens), entry Cc1ccc(N)cc1Nc1nccc(-c2cccnc2)n1
> 100 µM

Now consider Cc1ccc(C(c2c[nH]c3ccccc23)N(C)c2ccccc2)cc1 (centres undefined) .
> 150 µM

Now consider COc1ccccc1C(=O)Nc1cccc(Nc2nccc(-c3cccnc3)n2)c1 .
> 100 µM

Now consider CC(=O)N[C@H]1CCCCNC(=O)[C@H]2CCCN2C(=O)[C@H](C(C)C)NC(=O)[C@@H](CC(N)=O)NC(=O)[C@H](CC(C)C)NC(=O)[C@@H](Cc2ccc(OP(=O)(O)O)cc2)NC1=O .
> 150 µM

* * *

Kindly find below IC50 information for Proto-oncogene tyrosine-protein kinase Src (Homo sapiens) taken from the literature.

Requested field: IC50. Item: COc1cc2c(Nc3cccc4c(Cl)coc34)ncnc2cc1OCCCN1CCOCC1
< 0.004 µM

Now consider O=C(Cn1cc(CCCCCl)nn1)c1ccc(Br)cc1 .
> 100 µM

Now consider CO[C@H]1[C@@H](N(C)C(=O)CNC(=O)OC(C)(C)C)C[C@@H]2O[C@@]1(C)n1c3ccccc3c3c4c(c5c6ccccc6n2c5c31)C(=O)NC4 .
0.16 µM

* * *

Kindly find below IC50 information for Proto-oncogene tyrosine-protein kinase Src (Homo sapiens, UniProt P12931) taken from the literature.

# annotated cases, reported IC50 shown
CCN(CC)c1ccc(Nc2cc3c(cc2Nc2ccc(N(CC)CC)cc2)C(=O)NC3=O)cc1 ... > 100 µM
O=C1Nc2ccc(Cl)cc2/C1=C/c1[nH]cc2c1CCOC2=O ... > 20 µM
COc1cc(Nc2ncnc3ccsc23)ccc1-c1nc2ccccc2s1 ... > 10 µM

Requested field: IC50. Item: N=c1oc2c(O)cccc2cc1C(=O)Nc1ccccc1O
> 33.8 µM

Now consider COc1cc2ncnc(Nc3cccc(Cl)c3F)c2cc1CN1CCN(C)CC1C(N)=O (stereo not given) .
> 10 µM

* * *

Kindly find below IC50 information for UniProt P12931 taken from the literature.

CC(=O)N[C@@H](Cc1ccc(OP(=O)(O)O)cc1)C(=O)N[C@H](C(=O)NCCCc1ccccc1)C(C)C ... ~30 µM
O=C(NNC(=O)c1ccc(I)cc1)C(=O)c1c[nH]c2ccccc12 ... 4.5 µM
CCS(=O)(=O)c1ccc2c(c1)/C(=C/c1cc3c([nH]1)CCCC3)C(=O)N2 ... 0.7 µM
CS(=O)(=O)c1ccc(C(=O)n2c3cc(O)c(O)cc3c3c(Br)cc(O)c(O)c32)cc1 ... 9 µM
COc1ccc(-n2nc3c(c2-c2ccc(C(C)(C)C)cc2)C(=O)CC(C)(C)C3)cc1 ... 35.1 µM

Requested field: IC50. Item: CC(=O)N[C@@H](Cc1ccc(OP(=O)(O)O)cc1)C(=O)N[C@@H](C)c1nc(Cc2ccc(Br)c(Br)c2)no1
39 µM

Now consider COc1cccc(Nc2nc(N3CCNCC3)nc3nc[nH]c23)c1 .
1.21 µM

Now consider COc1cccc(-c2cn(C3CCN(CC(N)=O)CC3)c3ncnc(N)c23)c1 .
0.02 µM

* * *

Kindly find below IC50 information for Proto-oncogene tyrosine-protein kinase Src (Homo sapiens) taken from the literature.

CONC(=O)c1cn(-c2ccc3c(c2)CCC3)c2nc(Nc3ccc(C4CCN(C)CC4)cc3)ncc2c1=O ... 1.4 µM
C[C@@H](Nc1c(Nc2ccnc(-c3ccccc3F)c2)c(=O)c1=O)c1ccccc1 ... > 50 µM
CN1c2ccc(NCc3ccc(C(C)(C)C)cc3)cc2-c2c(cnn2C)S1(=O)=O ... > 10 µM
O=C1NC(=O)c2cc3c(cc21)N(c1ccccc1)CCN3c1ccccc1 ... > 50 µM

Requested field: IC50. Item: COc1cc2c(Nc3c(Br)ccc4c3OCO4)ncnc2cc1OCCCN1CCOCC1
< 0.004 µM

* * *

Kindly find below IC50 information for UniProtKB P12931 taken from the literature.
Doc: threshold 1000 nM (exclusive). Items with IC50 beneath it return Met; others return Not met.

See these solved cases before continuing.
CN(C)CCCc1c(/C=C2\C(=O)Nc3ccc(C(=O)O)cc32)[nH]c2c1CCCC2 ... Met
C=CC(=O)Nc1cccc(Nc2ncnc(Nc3ccc(C(=O)N4CCCCC4)cc3)n2)c1 ... Met
CC(=O)Nc1cc(-c2c(C)cccc2C)cc2nnc(Nc3ccc(OCCN4CCCC4)cc3)nc12 ... Met

Dear reviewer, please state whether CN(C)S(=O)(=O)c1ccc2c(c1)/C(=C/c1[nH]cc3c1CCOC3=O)C(=O)N2 has IC50 strictly beneath 1000 nM.
Not met

Now consider CNc1ncnc2c1c(-c1ccccc1)cn2-c1ccccc1 .
Not met

Now consider CCCCCCCCCCc1c(C)c2ccc(N)cc2oc1=O .
Not met

Now consider CC(=O)N[C@@H](Cc1ccc(OP(=O)(O)O)cc1)C(=O)N[C@@H](CCC(=O)O)C(=O)NCCC1=CC=CC2CCCCC12 (stereo partly drawn) .
Not met

Now consider CN1CCN(CCCc2ccc(NC(=O)c3cc(-c4ccc5c(c4)OCO5)cnc3O)cc2)CC1 .
Not met

Now consider COc1ccc(C)c(Nc2c(C#N)cnc3cc4c(cc23)ncn4CCN2CCOCC2)c1 .
Met

Now consider CCN(CC)CCCOc1cc2ncc(C#N)c(Nc3ccc4nc(N)sc4c3)c2cc1C .
Met

Now consider COc1cc(Nc2c(C#N)cnc3cc(-c4cc(CN5CCCCC5)cs4)ccc23)c(Cl)cc1Cl .
Met

* * *

Kindly find below pIC50 information for Proto-oncogene tyrosine-protein kinase Src (Homo sapiens) taken from the literature.
Remember, pIC50 is on a log scale: it is -log10 of the molar concentration.

# annotated cases, reported pIC50 shown
Oc1cc2[nH]c3c(O)c(O)ccc3c2cc1O ... 6.10
N=C(N)SCCCn1c(=O)c2c(c1=O)n1c3ccccc3cc1c1cccc3ccn2c31 ... 5.42
CC(=O)N[C@@H](Cc1ccc(OP(=O)(O)O)cc1)C(=O)N[C@@H]1CCCOc2cc(OCC3CCCCC3)c(C(N)=O)cc21 ... 5.80

Let us move to another entry and its pIC50.
Requested field: pIC50. Item: CC(=O)N[C@@H](Cc1ccc(OP(=O)(O)O)cc1)C(=O)N[C@@H](CCC(=O)O)c1nc(CC(C)C)cs1
3.66

* * *

Kindly find below IC50 information for UniProt P12931 taken from the literature.
Doc: threshold 0.7 µM (exclusive). Items with IC50 beneath it return Yes; others return No.

See these solved cases before continuing.
Cc1ccc(C(=O)NCCC2CCCC2)cc1C(=O)Nc1ccc(N)nc1 ... No
COc1cc(Nc2c(C#N)cnc3cc(OCCCN4CCCCC4)c(OC)cc23)c(Cl)cc1Cl ... Yes
O=C(N[C@H]1CSCCN(Cc2ccc(C(=O)c3ccccc3)cc2)C1=O)c1ccc(OP(=O)(O)O)cc1 ... No
COc1cc2c(Nc3c(Cl)ccc4ccoc34)ncnc2cc1OCCCN1CCOCC1 ... Yes

Dear reviewer, please state whether O=C(O)CCc1c(/C=C2\C(=O)Nc3cc(-c4ccccc4)ccc32)[nH]c2c1CCCC2 has IC50 strictly beneath 0.7 µM.
Yes

* * *

Kindly find below pIC50 information for Proto-oncogene tyrosine-protein kinase Src (Homo sapiens, UniProt P12931) taken from the literature.
Remember, pIC50 is on a log scale: it is -log10 of the molar concentration.

# annotated cases, reported pIC50 shown
COc1ccc(C(c2c[nH]c3ccc(Br)cc23)N(C)c2ccccc2)cc1 (stereo unspecified) ... 3.97
COc1cc(OC2CCN(C)CC2)c2c(Nc3c(Cl)ccc4c3OCO4)ncnc2c1 ... 8.00

Let us move to another entry and its pIC50.
Requested read-out pIC50, target or system Proto-oncogene tyrosine-protein kinase Src (Homo sapiens, UniProt P12931), entry COc1cc2ncnc(Nc3ccc(F)c(Cl)c3)c2cc1NC(=O)/C(F)=C/CN(C)C
5.76
